- Tested Target: T1, human SIRPβL/SIRPβ1v3 extracellular domain + His-tag (NP_001129316.1) (human, UniProt Q5TFQ8 30-371)
- T1 construct: also called hSIRPβ1v3; HuSIRPβ1v3
- T1 sequence (Q5TFQ8 other isoform, or with tags, fused parts or gaps): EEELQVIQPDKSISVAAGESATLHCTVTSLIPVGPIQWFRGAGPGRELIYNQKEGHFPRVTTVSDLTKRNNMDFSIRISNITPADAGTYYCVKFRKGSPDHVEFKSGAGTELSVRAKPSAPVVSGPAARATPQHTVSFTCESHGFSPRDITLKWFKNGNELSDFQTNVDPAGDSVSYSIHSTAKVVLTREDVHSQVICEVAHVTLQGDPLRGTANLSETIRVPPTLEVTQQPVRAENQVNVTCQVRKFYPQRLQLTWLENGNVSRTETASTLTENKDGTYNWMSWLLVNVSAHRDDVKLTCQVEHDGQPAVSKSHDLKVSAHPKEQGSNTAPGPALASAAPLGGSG
- Measurement Notes: SPR, Ab captured, ECD-His analyte
Assign pKd to each entry below.
Conceptually, pKd converts a concentration in mol/L into minus its log10.

# input Consider the binder Antibody E8 (antibody, human IgG1, kappa, L234A L235A, V domains shown) VH: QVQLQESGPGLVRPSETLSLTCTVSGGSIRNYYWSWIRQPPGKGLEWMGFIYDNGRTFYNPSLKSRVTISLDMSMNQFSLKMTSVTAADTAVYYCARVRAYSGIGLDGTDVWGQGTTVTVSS VL: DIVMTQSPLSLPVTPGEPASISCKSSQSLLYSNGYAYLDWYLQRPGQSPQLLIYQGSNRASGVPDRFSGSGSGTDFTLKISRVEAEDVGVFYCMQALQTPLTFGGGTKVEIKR and give its recorded pKd.
# output 8.59

# input Consider the binder Antibody E6 (antibody, human IgG1, kappa, L234A L235A, V domains shown) VH: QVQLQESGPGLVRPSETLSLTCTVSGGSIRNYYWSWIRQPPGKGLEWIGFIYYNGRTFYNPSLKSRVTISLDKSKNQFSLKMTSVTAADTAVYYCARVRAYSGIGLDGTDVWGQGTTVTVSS VL: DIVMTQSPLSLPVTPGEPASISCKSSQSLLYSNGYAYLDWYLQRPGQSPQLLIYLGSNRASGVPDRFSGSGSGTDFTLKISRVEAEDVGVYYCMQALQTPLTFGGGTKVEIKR and give its recorded pKd.
# output 8.57

# input Consider the binder Antibody E19 (antibody, human IgG1, kappa, L234A L235A, V domains shown) VH: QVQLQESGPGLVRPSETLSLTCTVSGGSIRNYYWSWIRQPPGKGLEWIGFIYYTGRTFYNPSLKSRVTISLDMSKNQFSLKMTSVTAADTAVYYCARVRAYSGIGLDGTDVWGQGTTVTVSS VL: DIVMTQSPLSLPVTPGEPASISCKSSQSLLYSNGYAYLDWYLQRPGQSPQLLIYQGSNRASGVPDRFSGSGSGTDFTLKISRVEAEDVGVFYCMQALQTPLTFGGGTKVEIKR and give its recorded pKd.
# output 8.32

# input Consider the binder Antibody E15 (antibody, human IgG1, kappa, L234A L235A, V domains shown) VH: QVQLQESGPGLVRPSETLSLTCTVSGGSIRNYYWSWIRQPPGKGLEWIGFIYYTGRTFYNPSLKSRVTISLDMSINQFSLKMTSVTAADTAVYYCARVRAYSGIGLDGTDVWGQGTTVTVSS VL: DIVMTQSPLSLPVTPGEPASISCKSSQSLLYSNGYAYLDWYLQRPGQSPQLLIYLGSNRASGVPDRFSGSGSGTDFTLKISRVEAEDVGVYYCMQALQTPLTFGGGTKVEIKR and give its recorded pKd.
# output 8.34

# input Consider the binder Antibody E14 (antibody, human IgG1, kappa, L234A L235A, V domains shown) VH: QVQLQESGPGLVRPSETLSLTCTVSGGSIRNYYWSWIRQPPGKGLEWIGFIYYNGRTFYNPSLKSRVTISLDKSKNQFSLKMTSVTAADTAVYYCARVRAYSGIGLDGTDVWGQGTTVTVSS VL: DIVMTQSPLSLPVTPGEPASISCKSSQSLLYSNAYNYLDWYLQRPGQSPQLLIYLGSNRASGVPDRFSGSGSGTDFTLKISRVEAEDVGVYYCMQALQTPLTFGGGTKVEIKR and give its recorded pKd.
# output 8.32
